- Tgt: human recombinant DGK ξ (Homo sapiens (Human), UniProt Q13574)
- Sequence (Q13574 whole entry): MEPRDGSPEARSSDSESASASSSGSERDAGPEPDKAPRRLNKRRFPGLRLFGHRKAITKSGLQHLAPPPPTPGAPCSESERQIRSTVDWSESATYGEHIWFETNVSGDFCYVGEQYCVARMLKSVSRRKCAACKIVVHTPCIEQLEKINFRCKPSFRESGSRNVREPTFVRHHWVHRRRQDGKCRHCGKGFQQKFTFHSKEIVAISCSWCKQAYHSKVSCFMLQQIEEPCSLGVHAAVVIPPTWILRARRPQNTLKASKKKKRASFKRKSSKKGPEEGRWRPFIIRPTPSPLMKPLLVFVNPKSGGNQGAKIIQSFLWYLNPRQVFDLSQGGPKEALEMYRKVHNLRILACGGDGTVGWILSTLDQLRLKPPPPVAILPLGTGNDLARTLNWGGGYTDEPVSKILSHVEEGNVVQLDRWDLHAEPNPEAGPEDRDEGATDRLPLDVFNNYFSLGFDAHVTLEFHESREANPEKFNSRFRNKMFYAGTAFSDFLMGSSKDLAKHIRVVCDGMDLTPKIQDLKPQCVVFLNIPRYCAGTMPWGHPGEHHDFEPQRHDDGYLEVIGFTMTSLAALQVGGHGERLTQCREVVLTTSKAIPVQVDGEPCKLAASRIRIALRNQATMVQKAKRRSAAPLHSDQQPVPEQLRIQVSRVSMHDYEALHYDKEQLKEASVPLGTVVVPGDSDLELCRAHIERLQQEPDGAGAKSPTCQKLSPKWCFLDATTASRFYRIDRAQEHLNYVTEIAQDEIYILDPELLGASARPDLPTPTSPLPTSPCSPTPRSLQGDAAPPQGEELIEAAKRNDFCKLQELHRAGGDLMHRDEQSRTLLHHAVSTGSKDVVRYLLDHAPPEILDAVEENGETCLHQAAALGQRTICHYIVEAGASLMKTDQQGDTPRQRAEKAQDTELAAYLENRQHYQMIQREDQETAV
- Protocol summary: Evaluation of DGK ξ inhibitory effect (ADP-Glo Kinase Assay)
Quantity kind: IC50 (nM)

A: NC[C@@H]1CCCN(c2c(NC(=O)c3csc(-c4ccnnc4)n3)ccc(Oc3ccccc3)c2C2CC2)C1
B: NC[C@@H]1CCCN(c2c(NC(=O)c3csc(-c4ccnnc4)n3)ccc(S(=O)(=O)c3ccccc3)c2C(F)(F)F)C1
IN: Between the entries labelled A and B , which has a larger IC50 value on record? Which one? Tell me its label.
OUT: B

a: NC[C@H]1CCCN1c1c(NC(=O)c2csc(-c3ccnnc3)n2)ccc(Oc2ccccc2)c1C(F)(F)F [Example 34]
b: Cn1cc(Oc2ccc(NC(=O)c3csc(-c4ccnnc4)n3)c(N3CCC[C@@H](CN)C3)c2C(F)(F)F)cn1
c: CNC[C@H]1CCCN1c1c(NC(=O)c2csc(-c3ccnnc3)n2)ccc(Oc2ccccc2)c1C(F)(F)F
d: CN(C)[C@@H]1CCN2CCN(c3c(NC(=O)c4csc(-c5ccnnc5)n4)ccc(Oc4ccccc4)c3C(F)(F)F)C[C@@H]12
IN: Let's sort these by IC50, smallest first. Go ahead? Provide the ranking by listing each label in its place in the requested order.
OUT: d, a, c, b
(d: 0.7 nM, a: 12 nM, c: 26 nM, b: 41 nM)
